assay-system: HER2 YVMA (Homo sapiens, UniProt P04626, INS775YVMA)
Construct: expressed in transfected cells; host or cells: BaF3 (murine pro-B)
Sequence (P04626 with tags, fused parts or gaps INS775YVMA): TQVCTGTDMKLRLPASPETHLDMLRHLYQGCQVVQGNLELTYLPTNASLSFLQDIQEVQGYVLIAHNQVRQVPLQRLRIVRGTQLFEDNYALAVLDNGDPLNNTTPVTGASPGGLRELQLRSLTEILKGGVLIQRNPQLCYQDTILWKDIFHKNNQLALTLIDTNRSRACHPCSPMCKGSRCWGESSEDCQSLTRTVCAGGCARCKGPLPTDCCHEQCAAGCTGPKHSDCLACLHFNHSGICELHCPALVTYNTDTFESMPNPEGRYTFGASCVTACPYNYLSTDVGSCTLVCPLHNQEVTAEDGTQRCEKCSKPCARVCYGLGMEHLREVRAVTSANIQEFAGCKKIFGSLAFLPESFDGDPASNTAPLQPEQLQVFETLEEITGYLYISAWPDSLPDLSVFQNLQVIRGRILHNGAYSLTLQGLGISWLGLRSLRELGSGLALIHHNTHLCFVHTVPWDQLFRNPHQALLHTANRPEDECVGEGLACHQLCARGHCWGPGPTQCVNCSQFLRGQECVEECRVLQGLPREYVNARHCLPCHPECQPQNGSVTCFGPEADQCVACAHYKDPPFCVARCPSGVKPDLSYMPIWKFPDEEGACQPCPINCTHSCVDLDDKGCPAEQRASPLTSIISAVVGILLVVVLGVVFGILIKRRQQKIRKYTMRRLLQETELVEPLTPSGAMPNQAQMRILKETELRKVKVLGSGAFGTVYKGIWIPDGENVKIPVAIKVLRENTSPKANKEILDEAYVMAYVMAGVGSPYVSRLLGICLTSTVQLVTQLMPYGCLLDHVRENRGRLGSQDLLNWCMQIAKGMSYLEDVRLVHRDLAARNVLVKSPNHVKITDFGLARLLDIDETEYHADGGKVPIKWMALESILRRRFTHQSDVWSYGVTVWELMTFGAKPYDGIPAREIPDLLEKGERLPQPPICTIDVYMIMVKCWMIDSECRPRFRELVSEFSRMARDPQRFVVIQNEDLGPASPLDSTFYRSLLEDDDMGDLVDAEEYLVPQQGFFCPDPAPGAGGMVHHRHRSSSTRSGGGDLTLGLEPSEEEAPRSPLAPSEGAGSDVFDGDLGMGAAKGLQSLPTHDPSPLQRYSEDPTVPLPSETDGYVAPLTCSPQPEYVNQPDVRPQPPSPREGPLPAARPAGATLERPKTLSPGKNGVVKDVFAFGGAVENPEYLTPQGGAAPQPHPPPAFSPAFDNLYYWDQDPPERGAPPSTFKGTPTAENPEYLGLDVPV
assay-text: Activity for inhibiting HER2 (Table B), HER2 YVMA
Type: cell-based
run-conditions: read-out: HER2 YVMA, potency code (IC50)
recorded-endpoint: IC50

[[record]]
compound = "CC#CC(=O)Nc1cc2c(Nc3ccc(OCc4ncccn4)c(Cl)c3)ncnc2cc1OCCCN1CCOCC1 [compound 168]"
value_measured = "50 to 100 nM"


Query string: Write down the reported IC50 (system: HER2 YVMA (Homo sapiens, UniProt P04626, INS775YVMA)) of C=CC(=O)Nc1cc2c(Nc3ccc(OCc4ccccn4)c(Cl)c3)ncnc2cc1OC[C@H]1CCN(C)C1 [compound 101]
Result string: 30 to 50 nM

* * *

assay-system: HER2 WT (Homo sapiens, UniProt P04626)
Sequence (P04626 23-1255): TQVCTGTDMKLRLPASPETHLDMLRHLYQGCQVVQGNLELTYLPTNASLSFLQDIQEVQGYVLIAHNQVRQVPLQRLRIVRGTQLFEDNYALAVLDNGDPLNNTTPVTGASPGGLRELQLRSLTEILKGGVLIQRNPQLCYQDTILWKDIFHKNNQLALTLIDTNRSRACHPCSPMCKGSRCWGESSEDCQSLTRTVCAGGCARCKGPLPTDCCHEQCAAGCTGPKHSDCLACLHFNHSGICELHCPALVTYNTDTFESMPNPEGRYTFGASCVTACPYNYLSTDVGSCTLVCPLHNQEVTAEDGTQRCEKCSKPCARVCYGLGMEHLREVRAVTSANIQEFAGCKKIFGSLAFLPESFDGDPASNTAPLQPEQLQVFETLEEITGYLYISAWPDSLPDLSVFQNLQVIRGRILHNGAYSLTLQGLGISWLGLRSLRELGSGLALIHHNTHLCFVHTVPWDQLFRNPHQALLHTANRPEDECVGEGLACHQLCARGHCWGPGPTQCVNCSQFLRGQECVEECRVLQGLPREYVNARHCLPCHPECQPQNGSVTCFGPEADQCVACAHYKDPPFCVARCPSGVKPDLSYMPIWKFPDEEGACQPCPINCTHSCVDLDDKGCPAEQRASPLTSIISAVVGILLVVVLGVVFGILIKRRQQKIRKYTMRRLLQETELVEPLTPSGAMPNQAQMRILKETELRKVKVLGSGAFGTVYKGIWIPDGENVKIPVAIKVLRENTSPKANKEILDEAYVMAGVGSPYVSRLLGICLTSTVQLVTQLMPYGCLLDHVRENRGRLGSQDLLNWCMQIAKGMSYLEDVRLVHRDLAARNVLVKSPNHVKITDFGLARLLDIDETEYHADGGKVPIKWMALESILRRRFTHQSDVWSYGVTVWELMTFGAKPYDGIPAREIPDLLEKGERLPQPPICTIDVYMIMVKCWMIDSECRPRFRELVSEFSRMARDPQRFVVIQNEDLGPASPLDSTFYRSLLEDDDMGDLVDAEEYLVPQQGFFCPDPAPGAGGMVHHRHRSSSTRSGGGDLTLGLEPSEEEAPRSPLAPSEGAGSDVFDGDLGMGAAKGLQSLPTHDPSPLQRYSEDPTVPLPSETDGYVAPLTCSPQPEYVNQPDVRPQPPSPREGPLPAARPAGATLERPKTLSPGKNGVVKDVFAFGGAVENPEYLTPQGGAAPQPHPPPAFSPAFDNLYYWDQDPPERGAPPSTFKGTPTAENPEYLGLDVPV
assay-text: BaF3 cell proliferation assay, HER2 WT (Table B)
Type: cell-based
run-conditions: potency code, 3 days, CellTiterGlo, read-out: HER2 WT (Activity for Inhibiting HER2)
// reported IC50 per item

Previously resolved entries follow.
[[record]]
molecule = "C=CC(=O)Nc1cc2c(Nc3ccc(OCc4cccc(F)c4)c(Cl)c3)ncnc2cc1OCCCN1CCOCC1"
value_measured = "0.01 to 0.02 µM"

[[record]]
molecule = "C=CC(=O)Nc1cc2c(Nc3ccc(OCc4ccccn4)c(Cl)c3)ncnc2cc1N1CC2CN(C)CC2C1 (centres unmarked)"
value_measured = "0.01 to 0.02 µM"

[[record]]
molecule = "C=CC(=O)Nc1cc2c(Nc3ccc(OCc4ccccn4)c(Cl)c3)ncnc2cc1OCCCN1CCCC1"
value_measured = "< 0.005 µM"

[[record]]
molecule = "C=CC(=O)Nc1cc2c(Nc3ccc(Oc4cccc(Cl)c4)cc3)ncnc2cc1OCCN1CCOCC1"
value_measured = "0.05 to 0.1 µM"

[[record]]
molecule = "C=CC(=O)Nc1cc2c(Nc3ccc(OCc4ccccn4)c(Cl)c3)ncnc2cc1OCCN1CC2(COC2)C1"
value_measured = "0.005 to 0.01 µM"


Query string: Write down the reported IC50 (system: HER2 WT (Homo sapiens, UniProt P04626)) of C=CC(=O)Nc1cc2c(Nc3ccc(OCc4ccccn4)c(Cl)c3)ncnc2cc1N1CCN(C)CC1
Result string: 0.03 to 0.05 µM

Query string: Write down the reported IC50 (system: HER2 WT (Homo sapiens, UniProt P04626)) of C=CC(=O)Nc1cc2c(Nc3ccc(OCc4ccccn4)c(Cl)c3)ncnc2cc1C#C[C@@H]1[C@H]2CN(C)C[C@@H]12
Result string: 0.005 to 0.01 µM

Query string: Write down the reported IC50 (system: HER2 WT (Homo sapiens, UniProt P04626)) of C=CC(=O)Nc1cc2c(Nc3ccc(OCc4ccccn4)c(Cl)c3)ncnc2cc1OCCN1CCN(C)CC1
Result string: < 0.005 µM

Query string: Write down the reported IC50 (system: HER2 WT (Homo sapiens, UniProt P04626)) of CC#CC(=O)Nc1cc2c(Nc3ccc(OCc4ccccn4)c(Cl)c3)ncnc2cc1N(C)CCN1CCOCC1
Result string: 0.02 to 0.03 µM

* * *

assay-system: EGFR NPH (Homo sapiens, UniProt P00533, DUP771-773)
Construct: expressed in transfected cells; host or cells: BaF3 (murine pro-B), retroviral pMXs-IRES-Blasticidin
Sequence (P00533 with tags, fused parts or gaps DUP771-773): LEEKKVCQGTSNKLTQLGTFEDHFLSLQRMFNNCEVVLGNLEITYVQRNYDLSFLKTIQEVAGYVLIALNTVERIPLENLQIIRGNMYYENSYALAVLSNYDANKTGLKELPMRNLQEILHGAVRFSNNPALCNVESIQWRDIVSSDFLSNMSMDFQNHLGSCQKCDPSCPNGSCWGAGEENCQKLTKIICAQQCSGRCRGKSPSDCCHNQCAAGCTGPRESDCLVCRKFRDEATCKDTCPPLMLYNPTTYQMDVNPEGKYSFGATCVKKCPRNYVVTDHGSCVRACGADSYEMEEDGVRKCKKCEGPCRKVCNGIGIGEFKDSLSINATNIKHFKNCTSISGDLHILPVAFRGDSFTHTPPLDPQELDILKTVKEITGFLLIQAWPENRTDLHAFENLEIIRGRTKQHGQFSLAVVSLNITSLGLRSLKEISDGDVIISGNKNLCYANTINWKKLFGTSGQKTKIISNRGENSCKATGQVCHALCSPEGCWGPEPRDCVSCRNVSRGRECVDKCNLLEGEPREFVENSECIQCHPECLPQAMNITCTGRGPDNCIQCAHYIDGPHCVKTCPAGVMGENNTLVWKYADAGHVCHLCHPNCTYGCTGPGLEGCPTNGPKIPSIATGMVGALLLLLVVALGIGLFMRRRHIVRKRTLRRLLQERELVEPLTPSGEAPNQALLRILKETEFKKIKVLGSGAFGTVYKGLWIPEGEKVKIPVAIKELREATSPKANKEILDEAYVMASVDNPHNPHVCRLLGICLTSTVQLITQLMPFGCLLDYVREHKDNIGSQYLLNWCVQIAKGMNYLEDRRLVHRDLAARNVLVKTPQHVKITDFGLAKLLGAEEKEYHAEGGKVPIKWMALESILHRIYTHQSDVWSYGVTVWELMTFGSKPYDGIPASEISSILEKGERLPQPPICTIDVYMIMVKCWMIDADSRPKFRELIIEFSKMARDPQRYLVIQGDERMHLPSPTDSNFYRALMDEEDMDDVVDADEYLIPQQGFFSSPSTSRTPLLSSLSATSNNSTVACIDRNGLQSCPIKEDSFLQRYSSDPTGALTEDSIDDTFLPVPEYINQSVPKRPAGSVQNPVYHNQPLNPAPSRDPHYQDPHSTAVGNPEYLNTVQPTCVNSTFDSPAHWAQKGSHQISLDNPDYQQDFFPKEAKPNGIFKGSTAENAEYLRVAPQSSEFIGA
assay-text: BaF3 cell proliferation assay, EGFR NPH (Table A)
Assay type: cell-based
run-conditions: potency code, 3 days, CellTiterGlo, read-out: EGFR NPH (Activity for Inhibiting EGFR)
pIC50: −log10 of the molar value.
recorded-endpoint: pIC50

[[record]]
compound = "C=CC(=O)Nc1cc2c(Nc3cc(Cl)c(OCc4ccccn4)cc3F)ncnc2cc1OCCN1CCOCC1"
assay_system = "EGFR NPH (Homo sapiens, UniProt P00533, DUP771-773)"
value_measured = "7.00 to 7.30"

[[record]]
compound = "C=CC(=O)Nc1cc2c(Nc3cc(Cl)c(OCc4ccccn4)cc3F)ncnc2cc1OC1CCN(C)C1 (stereo not drawn)"
assay_system = "EGFR NPH (Homo sapiens, UniProt P00533, DUP771-773)"
value_measured = "6.52 to 6.70"

[[record]]
compound = "CC#CC(=O)Nc1cc2c(Nc3ccc(OCc4ccccn4)c(Cl)c3)ncnc2cc1OCCN1CCOCC1"
assay_system = "EGFR NPH (Homo sapiens, UniProt P00533, DUP771-773)"
value_measured = "7.30 to 7.52"


Query string: Supply measured pIC50 of C=CC(=O)Nc1cc2c(Nc3ccc(OCc4ccccn4)c(Cl)c3)ncnc2cc1OCCCN1CCN(C)CC1 in your reply.
Result string: 7.52 to 7.70

Query string: Supply measured pIC50 of C=CC(=O)Nc1cc2c(Nc3ccc(OCc4ccccn4)c(Cl)c3)ncnc2cc1OCCN1CC2CCC(C1)O2 in your reply.
Result string: 7.00 to 7.30

Query string: Supply measured pIC50 of C=CC(=O)Nc1cc2c(Nc3ccc(OCc4ccccn4)c(Cl)c3)c(C#N)cnc2cc1OCCN1CCOCC1 in your reply.
Result string: 6.30 to 6.52

Query string: Supply measured pIC50 of C=CC(=O)Nc1cc2c(Nc3ccc(OCc4ccccn4)c(Cl)c3)ncnc2cc1OCCC1(N(C)C)CC1 in your reply.
Result string: 7.00 to 7.30

Query string: Supply measured pIC50 of C=CC(=O)Nc1cc2c(Nc3ccc(OCc4ccccn4)c(Cl)c3)ncnc2cc1N1CCC(N(C)C)CC1 in your reply.
Result string: 6.30 to 6.52

Query string: Supply measured pIC50 of C=CC(=O)Nc1cc2c(Nc3ccc(OCc4ccccn4)cc3F)ncnc2cc1OCCN1CCOCC1 in your reply.
Result string: 6.30 to 6.52

Query string: Supply measured pIC50 of C=CC(=O)Nc1cc2c(Nc3ccc(OCc4ccccn4)c(Cl)c3)ncnc2cc1OCCN1C2CCC1COC2 in your reply.
Result string: 7.00 to 7.30

Query string: Supply measured pIC50 of C=CC(=O)Nc1cc2c(Nc3ccc(OCc4ccccn4)c(Cl)c3)ncnc2cc1OCCN(C)C in your reply.
Result string: 6.70 to 7.00

* * *

// reported pIC50 per item
assay-system: EGFR SVD (Homo sapiens, UniProt P00533, DUP768-770)
Construct: expressed in transfected cells; host or cells: BaF3 (murine pro-B), retroviral pMXs-IRES-Blasticidin
Sequence (P00533 with tags, fused parts or gaps DUP768-770): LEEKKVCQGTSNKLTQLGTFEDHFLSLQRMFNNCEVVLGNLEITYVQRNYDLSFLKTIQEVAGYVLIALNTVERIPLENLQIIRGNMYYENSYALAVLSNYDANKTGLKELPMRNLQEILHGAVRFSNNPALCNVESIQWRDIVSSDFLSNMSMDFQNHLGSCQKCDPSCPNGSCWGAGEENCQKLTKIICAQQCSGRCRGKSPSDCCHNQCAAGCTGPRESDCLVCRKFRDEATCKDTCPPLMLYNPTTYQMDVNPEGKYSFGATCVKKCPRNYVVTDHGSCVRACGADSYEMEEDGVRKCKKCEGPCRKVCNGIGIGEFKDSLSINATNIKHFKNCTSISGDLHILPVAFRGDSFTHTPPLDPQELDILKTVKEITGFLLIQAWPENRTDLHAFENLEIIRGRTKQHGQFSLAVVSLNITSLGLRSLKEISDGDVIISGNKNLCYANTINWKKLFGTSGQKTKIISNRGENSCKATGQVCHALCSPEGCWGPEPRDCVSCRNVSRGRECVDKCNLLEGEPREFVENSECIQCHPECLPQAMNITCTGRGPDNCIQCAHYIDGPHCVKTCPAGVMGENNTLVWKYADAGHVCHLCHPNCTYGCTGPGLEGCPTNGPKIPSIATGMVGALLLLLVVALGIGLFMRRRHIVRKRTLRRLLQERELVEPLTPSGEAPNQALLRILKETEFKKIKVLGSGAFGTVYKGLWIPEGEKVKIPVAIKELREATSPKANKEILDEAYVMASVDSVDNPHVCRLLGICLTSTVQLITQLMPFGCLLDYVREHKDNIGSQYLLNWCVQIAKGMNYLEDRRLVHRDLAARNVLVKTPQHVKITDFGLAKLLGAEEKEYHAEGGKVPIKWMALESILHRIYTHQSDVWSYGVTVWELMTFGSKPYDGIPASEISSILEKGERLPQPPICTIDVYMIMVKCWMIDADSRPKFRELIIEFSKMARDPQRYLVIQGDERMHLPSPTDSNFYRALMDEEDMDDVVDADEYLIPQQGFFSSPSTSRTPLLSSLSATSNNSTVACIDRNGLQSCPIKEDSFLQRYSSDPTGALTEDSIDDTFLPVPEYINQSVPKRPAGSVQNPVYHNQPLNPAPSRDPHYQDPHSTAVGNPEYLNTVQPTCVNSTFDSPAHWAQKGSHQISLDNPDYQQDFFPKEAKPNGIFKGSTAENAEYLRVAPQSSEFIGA
assay-text: Activity for inhibiting EGFR (Table A), EGFR SVD
Format: cell-based
run-conditions: read-out: EGFR SVD, potency code (IC50)
pIC50: −log10 of the molar value.

Previously resolved entries follow.
[[record]]
compound = "CC#CC(=O)Nc1cc2c(Nc3ccc(OCc4ccccn4)c(Cl)c3)ncnc2cc1OCCN1CCOCC1"
assay_system = "EGFR SVD (Homo sapiens, UniProt P00533, DUP768-770)"
value_measured = "7.70 to 8.00"

[[record]]
compound = "C=CC(=O)Nc1cc2c(Nc3ccc(OCc4ccccn4)c(Cl)c3)ncnc2cc1N1CC2CN(C)CC2C1 (stereo not shown)"
assay_system = "EGFR SVD (Homo sapiens, UniProt P00533, DUP768-770)"
value_measured = "6.00 to 6.30"

[[record]]
compound = "C=CC(=O)Nc1cc2c(Nc3ccc(OCc4ccccn4)c(Cl)c3)ncnc2cc1OCCN1C2CCC1COC2"
assay_system = "EGFR SVD (Homo sapiens, UniProt P00533, DUP768-770)"
value_measured = "7.00 to 7.30"

[[record]]
compound = "C=CC(=O)Nc1cc2c(Nc3ccc(OCc4ccccn4)c(Cl)c3)ncnc2cc1OCCN1CC2(CCO2)C1"
assay_system = "EGFR SVD (Homo sapiens, UniProt P00533, DUP768-770)"
value_measured = "7.00 to 7.30"

[[record]]
compound = "C=CC(=O)Nc1cc2c(Nc3ccc(OCc4ccccn4)c(Cl)c3)ncnc2cc1OCCN1CCN(C)CC1"
assay_system = "EGFR SVD (Homo sapiens, UniProt P00533, DUP768-770)"
value_measured = "7.70 to 8.00"


Query string: Supply measured pIC50 of CC#CC(=O)Nc1cc2c(Nc3ccc(OCc4ccccn4)c(Cl)c3)ncnc2cc1OCCN1CCN(C)CC1 in your reply.
Result string: 7.30 to 7.52

Query string: Supply measured pIC50 of C=CC(=O)Nc1cc2c(Nc3ccc(OCc4ccccn4)c(Cl)c3)ncnc2cc1O[C@@H]1CCN(C)C1 in your reply.
Result string: 7.70 to 8.00

Query string: Supply measured pIC50 of C=CC(=O)Nc1cc2c(Nc3ccc(Oc4ccccc4)cc3)ncnc2cc1OCCN1CCOCC1 in your reply.
Result string: 6.30 to 6.52

Query string: Supply measured pIC50 of C=CC(=O)Nc1cc2c(Nc3ccc(OCc4ccccn4)c(Cl)c3)ncnc2cc1OCCN1CCOCC1 in your reply.
Result string: 7.52 to 7.70

Query string: Supply measured pIC50 of C=CC(=O)Nc1cc2c(Nc3ccc(OCc4ccccn4)c(Cl)c3)c(C#N)cnc2cc1OCCN1CCOCC1 in your reply.
Result string: 6.30 to 6.52

Query string: Supply measured pIC50 of C=CC(=O)Nc1cc2c(Nc3ccc(OCc4ccccn4)cc3F)ncnc2cc1OCCN1CCOCC1 in your reply.
Result string: 6.30 to 6.52

Query string: Supply measured pIC50 of C=CC(=O)Nc1cc2c(Nc3ccc(OCc4ccccn4)c(Cl)c3)ncnc2cc1OCC1CCCN1 (stereo not shown) in your reply.
Result string: 6.52 to 6.70

Query string: Supply measured pIC50 of C=CC(=O)Nc1cc2c(Nc3ccc(Oc4ccc(C)nc4)c(C)c3)ncnc2cc1OC1CCN(C)C1 (stereo not shown) in your reply.
Result string: 6.00 to 6.30

Query string: Supply measured pIC50 of C=CC(=O)Nc1cc2c(Nc3ccc(OCc4ccccn4)c(Cl)c3)ncnc2cc1OCCCN1CCCC1 in your reply.
Result string: 7.70 to 8.00

Query string: Supply measured pIC50 of C=CC(=O)Nc1cc2c(Nc3ccc(OCc4ccccn4)c(Cl)c3)ncnc2cc1C#C[C@H]1CCN(C)C1 in your reply.
Result string: 7.52 to 7.70

Query string: Supply measured pIC50 of C=CC(=O)Nc1cc2c(Nc3ccc(OCc4ccccn4)c(Cl)c3)ncnc2cc1OCCCN1CC2CC1CO2 (stereo not shown) in your reply.
Result string: 7.70 to 8.00

Query string: Supply measured pIC50 of C=CC(=O)Nc1cc2c(Nc3ccc(OCc4ccccn4)c(Cl)c3)ncnc2cc1OCCN1CC2COCC2C1 (stereo not shown) in your reply.
Result string: 7.30 to 7.52

Query string: Supply measured pIC50 of C=CC(=O)Nc1cc2c(Nc3ccc(OCc4ccccn4)c(Cl)c3)ncnc2cc1N1CCN(C)CC1 in your reply.
Result string: 6.00 to 6.30

Query string: Supply measured pIC50 of C=CC(=O)Nc1cc2c(Nc3cc(Cl)c(OCc4ccccn4)cc3F)ncnc2cc1OC1CCN(C)C1 (stereo not shown) in your reply.
Result string: 6.52 to 6.70

Query string: Supply measured pIC50 of C=CC(=O)Nc1cc2c(Nc3ccc(OCc4ccccn4)c(Cl)c3)ncnc2cc1C#CC(C)(C)N1CCCC1 in your reply.
Result string: 7.00 to 7.30

Query string: Supply measured pIC50 of C=CC(=O)Nc1cc2c(Nc3ccc(OCc4ccccn4)c(Cl)c3)ncnc2cc1C#CC(C)(C)N(C)C in your reply.
Result string: 7.00 to 7.30

Query string: Supply measured pIC50 of C=CC(=O)Nc1cc2c(Nc3ccc(OCc4ccccn4)c(Cl)c3)ncnc2cc1OCCCN1CCN(C)CC1 in your reply.
Result string: 7.52 to 7.70
